# System: Rattus norvegicus
# assay-summary: Time duration was determined from onset of the action till no response after […] administration of 1 mg/kg in anesthetized, ganglion blocked, A II- infused rat
# Format: functional
assay-readout: Duration

CCCCc1nc(C)n(Cc2occc2C(=O)OC)c(=O)c1Cc1ccc(-c2ccccc2-c2nn[nH]n2)cc1 : >120 min

Query block: Entry "CCCCc1nc(C)n(Cc2ccsc2C(=O)OC)c(=O)c1Cc1ccc(-c2ccccc2-c2nn[nH]n2)cc1" has what Duration?
Result block: >120 min

Query block: Entry "CCCCc1nc(C)n(Cc2sccc2C(=O)OC)c(=O)c1Cc1ccc(-c2ccccc2-c2nnn[nH]2)cc1" has what Duration?
Result block: >120 min

Values from ChEMBL document CHEMBL1128641
